Recorded measurements of TGI, one per entry
Tested on: M14 melanoma
RUN DESCRIPTION: NCI tumour cell line growth inhibition, 48 h

MOLECULE	TGI
CC1CC(O)C(=O)C(O[C@@H]2C[C@@H]3CC[C@@H]4[C@H](CC[C@]5(C)C(C6=CC(=O)OC6)CC[C@]45O)[C@@]3(C=O)C[C@H]2O)O1 (stereo partly specified)	0.178 µM
NNC1=N/C(=C\c2ccco2)C(Cl)=N1	> 100 µM
Cn1c(=O)c2c(nc(C(=N)SCC(=O)O)n2C)n(C)c1=O	> 100 µM

[ask] What value of measured TGI is listed for COc1ccc(CC2c3c(cc(OC)c(OC)c3OC)CCN2C)cc1OC (stereo unspecified) ?
[reply] > 100 µM

[ask] What value of measured TGI is listed for CC1=NN(C(=O)CC(=O)Nc2ccccc2F)C(=O)C1N=Nc1ccccc1[N+](=O)[O-] (stereo unspecified) ?
[reply] > 100 µM

[ask] What value of measured TGI is listed for `O=C(NCc1ccc(Cn2c(=O)sn(-c3ccccc3)c2=O)cc1)OCc1ccc2cccc(O)c2n1` ?
[reply] 2.03 µM

[ask] What value of measured TGI is listed for `CN(Cc1ccccc1)c1cc(=O)n(C)c(=O)[nH]1` ?
[reply] > 100 µM

[ask] What value of measured TGI is listed for `CCCCNC(=S)N/N=C/c1cccc(C)n1` ?
[reply] 48.6 µM

[ask] What value of measured TGI is listed for `CCOC(=O)c1c(-c2ccccc2)c(-c2ccccc2)cn1C` ?
[reply] > 10 µM

[ask] What value of measured TGI is listed for O=c1ccn(C2OC(CO)C(P(=O)(O)O)C2O)c(=O)[nH]1 (stereo unspecified) ?
[reply] > 100 µM

[ask] What value of measured TGI is listed for `COc1cc(-c2cc(=O)c3cc4c(=O)cc(-c5cc(OC)c(OC)c(OC)c5)oc4cc3o2)cc(OC)c1OC` ?
[reply] > 100 µM

[ask] What value of measured TGI is listed for `CCOCN1COCN(C)C1=O` ?
[reply] > 100 µM

[ask] What value of measured TGI is listed for CCOC(=O)NC(=O)c1cn(C(CC)COC(=O)NCCCCCCNC(=O)OCC(CC)n2cc(C(=O)NC(=O)OCC)c(=O)[nH]c2=O)c(=O)[nH]c1=O (stereo unspecified) ?
[reply] > 100 µM

* * *

System: HL-60(TB) leukemia
RUN DESCRIPTION: NCI tumour cell line growth inhibition, 48 h
MEASUREMENT KIND: TGI

                                   compound   reading
0  O=C(CC(=O)C1CCOC1=O)C(=O)Nc1cccc(Cl)c1 (stereo not given)  > 100 µM
1  COC(=O)CCc1cc(OC)c2c(c1)[C@H](C(=O)OC)[C@@H](c1ccc(O)c(OC)c1)O2     36 µM

[ask] What value of measured TGI is listed for CCOC(=O)C(Cl)(Cl)/S(=N\S(=O)(=O)c1ccccc1)NC(=O)c1ccccc1 (stereo not given) ?
[reply] > 100 µM

[ask] What value of measured TGI is listed for O=c1[nH]cnc(NC2C=C(CO)C(O)C2O)c1[N+](=O)[O-] (stereo not given) ?
[reply] > 51.7 µM

[ask] What value of measured TGI is listed for `NCCCN1CCN(CCCNc2ccc3nnn4c5ccccc5c(=O)c2c34)CC1` ?
[reply] > 100 µM

[ask] What value of measured TGI is listed for `c1ccc2c(c1)c1c(n2CCOCCN2CCOCC2)CCCC1` ?
[reply] 51.9 µM

[ask] What value of measured TGI is listed for `CCCCn1cnc2c(c(CC#N)nn2-c2ccccc2)c1=N` ?
[reply] > 100 µM

[ask] What value of measured TGI is listed for O=C(NC(COC(=O)C(Cc1ccccc1)NC(=O)c1ccccc1)Cc1ccccc1)c1ccccc1 (stereo not given) ?
[reply] > 50 µM

[ask] What value of measured TGI is listed for `COc1cc2nc(-c3cccs3)oc(=O)c2cc1OC` ?
[reply] > 100 µM

[ask] What value of measured TGI is listed for O=C(CNc1c(Cl)cccc1Cl)NC1C=Cc2ccc(S(=O)(=O)Nc3c(Cl)cccc3Cl)cc2C1=O (stereo not given) ?
[reply] > 100 µM

* * *

System: 786-0 renal
RUN DESCRIPTION: NCI tumour cell line growth inhibition, 48 h
MEASUREMENT KIND: TGI

Take a look at these entries with their results.
COMPOUND	EXPERIMENTAL SYSTEM	READING
COc1ccc(-c2nc(-c3cc(OC)cc(OC)c3)[nH]c2-c2ccc(OC)cc2)cc1	786-0 renal	> 100 µM
NCCNCC1CCNCC1	786-0 renal	> 100 µM

[ask] What value of measured TGI is listed for COc1ccc(C(CC(=O)c2ccc3c(c2)OCO3)c2c(O)c3ccccc3oc2=O)cc1OC (stereo unspecified) ?
[reply] > 100 µM

[ask] What value of measured TGI is listed for `Cc1cccc(C2=C/C(=C(\SS/C(C(=O)c3ccc(OCC(=O)O)c(Cl)c3Cl)=C3\C=C(c4cccc(C)c4)SS3)C(=O)c3ccc(OCC(=O)O)c(Cl)c3Cl)SS2)c1` ?
[reply] 41.7 µM

[ask] What value of measured TGI is listed for `O=C(Oc1cc(=O)c(OC(=O)c2ccccc2)co1)c1ccccc1` ?
[reply] > 100 µM

[ask] What value of measured TGI is listed for `O=C1Nc2ccccc2/C1=C1\CCc2cc(O)ccc21` ?
[reply] > 25 µM

[ask] What value of measured TGI is listed for `O=C(Nc1cc(Nc2ncccc2-c2ncnc3nc[nH]c23)ccc1F)c1cc(C(F)(F)F)cc(C(F)(F)F)c1` ?
[reply] 9.52 µM

[ask] What value of measured TGI is listed for `Nc1nc(N)c(N=O)c(Nc2ccc(Br)cc2)n1` ?
[reply] > 100 µM

[ask] What value of measured TGI is listed for CC(C)(C)[Si](C)(C)OC1[C@@H](CNC(=O)NC(=O)CCl)O[C@@H](n2cnc3c(N)ncnc32)[C@H]1O[Si](C)(C)C(C)(C)C (stereo partly specified) ?
[reply] 1.55 µM

[ask] What value of measured TGI is listed for CC(C)=CCC/C(C)=C/COC(C)(C)C1=CCC(C)CC1 (stereo unspecified) (tested in a mixture with another compound) ?
[reply] > 100 µM

[ask] What value of measured TGI is listed for `ClC(Cl)=C1C(=C(Cl)Cl)C(Cl)(Cl)C1(Cl)Cl` ?
[reply] 2.81 µM

* * *

Recorded measurements of TGI, one per entry
System: SNB-75 CNS
RUN DESCRIPTION: NCI tumour cell line growth inhibition, 48 h

In [3]: df
Out[3]:
                                   compound  measurement_kind   reading
0                O=C(/C=C/c1ccccc1)c1ccccc1               TGI   > 10 µM
1         Nc1ccc(-c2nc3ccccc3s2)cc1C(F)(F)F               TGI   27.9 µM
2               CCCCNC(=S)N/N=C/c1cccc(C)n1               TGI  > 100 µM
3  C[C@]12CC[C@@H]3c4ccc(O)cc4CC[C@H]3[C@@H]1C/C(=C\c1ccncc1)[C@@H]2O               TGI   23.6 µM
4  Cn1cc(-c2csc(-c3cn(CCCCN4CCCCC4)c4ccccc34)n2)c2cccnc21               TGI   2.99 µM
5  COC(=O)C(=O)C(C(C)=O)C(=O)NCc1ccc(OC)c(OC)c1 (stereo unspecified)               TGI  > 100 µM

[ask] What value of measured TGI is listed for `COC(=O)CN1c2nc(C#N)c(C#N)nc2N(CC(=O)OC)c2nc(C#N)c(C#N)nc21` ?
[reply] 30.4 µM

* * *

System: HOP-62 NSCLC
RUN DESCRIPTION: NCI tumour cell line growth inhibition, 48 h
Recorded measurements of TGI, one per entry

Take a look at these entries with their results.
>>> df
                                   compound  measurement_kind   reading
0  Cc1c(N2C(=O)C(Cl)C2c2ccc(Cl)cc2)c(=O)n(-c2ccccc2)n1C (centres undefined)               TGI  > 100 µM
1  CC(C)c1[nH]nc2c1N=C(c1ccccc1Cl)c1cc([N+](=O)[O-])ccc1N2               TGI   > 25 µM
2  S=C(/N=c1\sc(Nc2ccc(Cl)cc2)nc2sc3c(c12)CCN(N1CCc2c(sc4nc(Nc5ccc(Cl)cc5)s/c(=N\C(=S)Nc5ccc(Cl)cc5)c24)C1)C3)Nc1ccc(Cl)cc1               TGI  > 100 µM
3  COc1ccc(CC2c3c(cc(OC)c(OC)c3OC)CCN2C)cc1OC (centres undefined)               TGI  > 100 µM
4  COc1ccc(C(CC(=O)c2ccc3c(c2)OCO3)c2c(O)c3ccccc3oc2=O)cc1OC (centres undefined)               TGI  > 100 µM
5  COc1ccc(-c2oc(/C=N/NC(N)=S)c([N+](=O)[O-])c2-c2ccc(OC)c(OC)c2)cc1OC               TGI  > 100 µM

[ask] What value of measured TGI is listed for `CCN1c2ccccc2-c2c3c1cc(C)cc3c1ccccc1[n+]2CC` ?
[reply] 5.15 µM

[ask] What value of measured TGI is listed for CCOC(=O)C(Cl)(Cl)/S(=N\S(=O)(=O)c1ccccc1)NC(=O)c1ccccc1 (centres undefined) ?
[reply] > 100 µM

[ask] What value of measured TGI is listed for `O=C(/C=C/c1ccccc1)c1ccccc1` ?
[reply] > 10 µM

Each recorded value in this set is attributed to PubChem BioAssay (NCI).
